- assay.target: CFTR (Homo sapiens)
- assay.name: Membrane potential dye, Enteroid Assay A
- Assay type: cell-based
- experimental.conditions: Table 6; chloride transport as % of triple combination control (Enteroid Assay A)
measured.property: Ent. A Max Activity

Worked cases, answers included:
compound	assay.target	measurement
Cc1cccc(C)c1-c1cc2nc(n1)NS(=O)(=O)c1cccc(c1)C(=O)N(Cc1ccccc1)C(C(=O)NCc1ccccc1)CO2 (stereo not drawn) [Compound 514]	CFTR (Homo sapiens)	+ (+ is <30%)
CNc1ccc(CN2C(=O)c3cccc(c3)S(=O)(=O)Nc3nc(cc(-c4c(C)cccc4C)n3)OC[C@H]2CC(C)C)cn1 [Compound 857]	CFTR (Homo sapiens)	+++ (+++ is >60%)
COc1ccnc(CN2C(=O)c3cccc(c3)S(=O)(=O)Nc3nc(cc(-c4c(C)cccc4C)n3)OC[C@H]2CC(C)C)c1 [Compound 82]	CFTR (Homo sapiens)	+++ (+++ is >60%)
Cc1cccc(C)c1-c1cc2nc(n1)NS(=O)(=O)c1cccc(c1)C(=O)N(Cc1ccccc1)C(C(=O)NC1CCCCC1)CO2 (stereo not drawn) [Compound 515]	CFTR (Homo sapiens)	+ (+ is <30%)

Identify Ent. A Max Activity associated with the compound Cc1cccc(C)c1-c1cc2nc(n1)NS(=O)(=O)c1cccc(c1)C(=O)N(CC(C)C)C[C@H](Cc1ccccc1)O2 [Compound 863]
+++ (+++ is >60%)

---

- assay.target: CFTR (Homo sapiens, UniProt P13569)
- Sequence (P13569 with tags, fused parts or gaps DEL508-508): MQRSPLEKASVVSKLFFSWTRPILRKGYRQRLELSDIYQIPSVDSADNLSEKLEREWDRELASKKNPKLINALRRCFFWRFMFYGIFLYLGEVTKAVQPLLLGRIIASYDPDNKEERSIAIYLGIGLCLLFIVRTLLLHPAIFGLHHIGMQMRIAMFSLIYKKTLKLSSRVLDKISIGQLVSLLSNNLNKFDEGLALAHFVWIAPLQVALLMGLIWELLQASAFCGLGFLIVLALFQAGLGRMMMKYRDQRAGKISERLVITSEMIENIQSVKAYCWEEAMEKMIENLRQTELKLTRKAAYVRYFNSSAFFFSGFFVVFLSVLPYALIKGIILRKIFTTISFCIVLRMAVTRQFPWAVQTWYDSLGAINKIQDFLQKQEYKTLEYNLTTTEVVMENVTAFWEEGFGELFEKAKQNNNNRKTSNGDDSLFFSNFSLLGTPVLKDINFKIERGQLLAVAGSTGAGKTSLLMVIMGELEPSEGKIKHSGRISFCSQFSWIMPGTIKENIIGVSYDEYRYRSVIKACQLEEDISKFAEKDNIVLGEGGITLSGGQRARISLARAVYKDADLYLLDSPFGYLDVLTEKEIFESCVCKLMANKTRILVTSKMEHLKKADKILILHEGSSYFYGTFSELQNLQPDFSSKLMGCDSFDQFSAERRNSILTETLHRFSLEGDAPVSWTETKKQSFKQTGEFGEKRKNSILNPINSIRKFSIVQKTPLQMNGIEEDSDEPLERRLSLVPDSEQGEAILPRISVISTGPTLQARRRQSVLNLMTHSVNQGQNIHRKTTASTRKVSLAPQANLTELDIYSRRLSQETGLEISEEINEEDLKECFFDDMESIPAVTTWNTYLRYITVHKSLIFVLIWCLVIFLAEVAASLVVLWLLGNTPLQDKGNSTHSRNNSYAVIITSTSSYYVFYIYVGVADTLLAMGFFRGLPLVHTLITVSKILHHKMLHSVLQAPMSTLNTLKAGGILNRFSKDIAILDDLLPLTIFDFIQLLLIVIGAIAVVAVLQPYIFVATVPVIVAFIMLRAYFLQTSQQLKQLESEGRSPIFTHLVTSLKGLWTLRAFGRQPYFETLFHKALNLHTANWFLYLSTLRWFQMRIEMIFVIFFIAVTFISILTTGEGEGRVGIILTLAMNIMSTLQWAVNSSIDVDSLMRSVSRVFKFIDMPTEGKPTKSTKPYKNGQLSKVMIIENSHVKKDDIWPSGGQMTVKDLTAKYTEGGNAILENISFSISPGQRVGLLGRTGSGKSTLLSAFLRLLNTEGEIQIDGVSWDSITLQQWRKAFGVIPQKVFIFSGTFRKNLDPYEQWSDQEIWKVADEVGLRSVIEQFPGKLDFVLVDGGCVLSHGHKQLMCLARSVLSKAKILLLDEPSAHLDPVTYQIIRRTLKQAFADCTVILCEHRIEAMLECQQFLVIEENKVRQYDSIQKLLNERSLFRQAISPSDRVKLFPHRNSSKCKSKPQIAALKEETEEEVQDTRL
- assay.name: Membrane potential dye, Enteroid Assay A
- Format: cell-based
- experimental.conditions: Table 6; chloride transport as % of triple combination control (Enteroid Assay A)
measured.property: Ent. A Max Activity

compound	Ent. A Max Activity
Cc1ccccc1CN1C(=O)c2cccc(c2)S(=O)(=O)Nc2nc(cc(-c3c(C)cccc3C)n2)OC[C@H]1CC(C)C	+++ (+++ is >60%)
Cc1cccc(C)c1-c1cc2nc(n1)NS(=O)(=O)c1cccc(c1)C(=O)N(CC(O)CO)[C@H](CC(C)C)CO2 (stereo in doubt)	+++ (+++ is >60%)
Cc1cccc(C)c1-c1cc2nc(n1)NS(=O)(=O)c1cccc(c1)C(=O)N(C)CC(c1ccc(C#N)cc1)O2 (stereo not drawn)	++ (++ is 30-60%)
COc1cccc(CN2C(=O)c3cccc(c3)S(=O)(=O)Nc3nc(cc(-c4c(C)cccc4C)n3)OC[C@H]2CC(C)C)c1	+++ (+++ is >60%)
Cc1cccc(C)c1-c1cc2nc(n1)NS(=O)(=O)c1cccc(c1)C(=O)N(C)CC(CNC(=O)OC(C)(C)C)O2 (stereo not drawn)	++ (++ is 30-60%)

Identify Ent. A Max Activity associated with the compound Cc1cccc(C)c1-c1cc2nc(n1)NS(=O)(=O)c1cccc(c1)C(=O)N(C)CC(c1ccccc1)O2 (stereo not drawn)
+++ (+++ is >60%)

---

Recorded measurements of pEC50, one per entry
- assay.target: CFTR (Homo sapiens)
- assay.name: Membrane potential dye, Enteroid Assay A
- Assay type: cell-based
- experimental.conditions: Table 7; human enteroid cells, 18-24 hours; acute 10 μM forskolin and 300 nM ivacaftor; read-out: Ent. A EC50
pEC50: −log10 of the molar value.

Worked cases, answers included:
molecule	pEC50
Cc1cccc(C)c1-c1cc2nc(n1)NS(=O)(=O)c1cccc(c1)C(=O)N(C)[C@H](c1ccc(C(C)(C)C)cc1)CO2 [Compound 1010]	> 6.00
Cc1cccc(C)c1-c1cc2nc(n1)NS(=O)(=O)c1cccc(c1)C(=O)N(Cc1ccc(N3CCC[C@@H]3C)nc1)[C@H](CC(C)C)CO2	> 6.00
Cc1cccc(C)c1-c1cc2nc(n1)NS(=O)(=O)c1cccc(c1)C(=O)N(Cc1ccc(N3CCCCC3)nc1)[C@H](CC(C)C)CO2	> 6.00

Identify pEC50 associated with the molecule `Cc1cccc(C)c1-c1cc2nc(n1)NS(=O)(=O)c1cccc(c1)CN(C(=O)Cc1ccccc1)[C@H](CC(C)C)CO2`
5.52 to 6.00

Identify pEC50 associated with the molecule Cc1cccc(C)c1-c1cc2nc(n1)NS(=O)(=O)c1cccc(c1)C(=O)N(C)CC(c1ccc(C3=CCOCC3)cc1)O2 (stereo not drawn) [Compound 671]
> 6.00

Identify pEC50 associated with the molecule `Cc1cccc(C)c1-c1cc2nc(n1)NS(=O)(=O)c1cccc(c1)C(=O)N(Cc1ccc(N(C)C)nc1)[C@H](CC(C)C)CO2`
> 6.00

---

- assay.target: CFTR (Homo sapiens, UniProt P13569, DEL508-508)
- Construct: endogenous in cells; host or cells: primary human bronchial epithelial cells from CF subjects (F508del/MF-HBE), differentiated at air-liquid interface
- Sequence (P13569 with tags, fused parts or gaps DEL508-508): as above
- assay.name: HBE assay: Ussing chamber assay of CFTR-mediated short-circuit currents
- Format: cell-based
- experimental.conditions: read-out: HBE Activity at 10 μM (%)
measured.property: activation at 10 µM

Worked cases, answers included:
molecule	activation at 10 µM
Cc1cccc(C)c1-c1cc2nc(n1)NS(=O)(=O)c1cccc(c1)C(=O)N(Cc1cncc(N3CCCC[C@H]3C)n1)[C@H](CC(C)(C)C)CO2 [Compound 1506]	> 60%
Cc1cccc(C)c1-c1cc2nc(n1)NS(=O)(=O)c1cccc(c1)C(=O)N(Cc1cncc(N3CC[C@H]3C)n1)[C@H](CC(C)(C)C)CO2 [Compound 1512]	> 60%

Next:
Identify activation at 10 µM associated with the molecule Cc1cccc(C)c1-c1cc2nc(n1)NS(=O)(=O)c1cccc(c1)C(=O)N(Cc1cncc(N3CCC[C@H]3C3CC3)n1)[C@H](CC1CC1)CO2 [Compound 1502]
> 60%

---

- assay.target: CFTR (Homo sapiens, UniProt P13569, DEL508-508)
- Construct: endogenous in cells; host or cells: primary human bronchial epithelial cells from CF subjects (F508del/MF-HBE), differentiated at air-liquid interface
- assay.name: HBE assay: Ussing chamber assay of CFTR-mediated short-circuit currents
- Assay type: cell-based
- experimental.conditions: HBE assay; read-out: HBE EC50
pEC50: −log10 of the molar value.
measured.property: pEC50

Worked cases, answers included:
compound	measured.property	measurement
Cc1cccc(C)c1-c1cc2nc(n1)NS(=O)(=O)c1cccc(c1)C(=O)N(Cc1cccc(N(C)C3CCCC3)n1)[C@H](CC(C)(C)C)CO2	pEC50	> 6.00
Cc1cccc(C)c1-c1cc2nc(n1)NS(=O)(=O)c1cccc(c1)C(=O)N(Cc1ncc(OC3CC(C)(C)C3)cn1)[C@H](CC(C)C)CO2	pEC50	5.52 to 6.00
COCCN(c1cccc(CN2C(=O)c3cccc(c3)S(=O)(=O)Nc3nc(cc(-c4c(C)cccc4C)n3)OC[C@H]2CC(C)(C)C)n1)C1CC2(CC2)C1	pEC50	> 6.00
Cc1cccc(C)c1-c1cc2nc(n1)NS(=O)(=O)c1cccc(c1)C(=O)N(Cc1ccnc(N3CCC[C@H]3C(C)C)n1)[C@H](CC(C)(C)C)CO2 [Compound 1475]	pEC50	> 6.00
Cc1cccc(C)c1-c1cc2nc(n1)NS(=O)(=O)c1cccc(c1)C(=O)N(Cc1ncc(N3CC(C)C3)cn1)[C@H](CC(C)(C)C)CO2	pEC50	> 6.00

Identify pEC50 associated with the compound CO[C@H]1C[C@@H](Oc2cnc(CN3C(=O)c4cccc(c4)S(=O)(=O)Nc4nc(cc(-c5c(C)cccc5C)n4)OC[C@H]3CC(C)C)nc2)C1 (stereo in doubt) [Compound 1462]
> 6.00

---

- assay.target: CFTR (Homo sapiens, UniProt P13569)
- assay.name: Membrane potential dye, Enteroid Assay B
- Format: cell-based
- experimental.conditions: Table 8; chloride transport as % of triple combination control (Enteroid Assay B)
measured.property: Ent. B Max Activity

Worked cases, answers included:
molecule	assay.target	measurement
Cc1cccc(C)c1-c1cc2nc(n1)NS(=O)(=O)c1cccc(c1)C(=O)N(Cc1ccc(C(C)(C)O)cc1)[C@H](CCC(C)(C)O)CO2	CFTR (Homo sapiens, UniProt P13569)	++ (++ is 30-60%)
Cc1cccc(C)c1-c1cc2nc(n1)NS(=O)(=O)c1cccc(n1)C(=O)N(Cc1ncccn1)[C@H](CC(C)(C)C)CO2	CFTR (Homo sapiens, UniProt P13569)	+++ (+++ is >60%)
Cc1cccc(C)c1-c1cc2nc(n1)NS(=O)(=O)c1cccc(c1)C(=O)N(Cc1cnc(N)nc1)[C@H](CC(C)(C)C)CO2	CFTR (Homo sapiens, UniProt P13569)	+++ (+++ is >60%)
COc1ncc(CN2C(=O)c3cccc(c3)S(=O)(=O)Nc3nc(cc(-c4c(C)cccc4C)n3)OC[C@H]2CC(C)(C)C)cn1	CFTR (Homo sapiens, UniProt P13569)	+++ (+++ is >60%)

Lab note: record Ent. B Max Activity of `Cc1cccc(C)c1-c1cc2nc(n1)NS(=O)(=O)c1cccc(c1)C(=O)N(Cc1ccc(O)nn1)[C@H](CC(C)(C)C)CO2` tested on CFTR (Homo sapiens, UniProt P13569).
++ (++ is 30-60%)
